Target: T1, chick N-cadherin expressed on transfected 3T3 cells (chick, UniProt P10288 165-912)
T1 sequence (looked up): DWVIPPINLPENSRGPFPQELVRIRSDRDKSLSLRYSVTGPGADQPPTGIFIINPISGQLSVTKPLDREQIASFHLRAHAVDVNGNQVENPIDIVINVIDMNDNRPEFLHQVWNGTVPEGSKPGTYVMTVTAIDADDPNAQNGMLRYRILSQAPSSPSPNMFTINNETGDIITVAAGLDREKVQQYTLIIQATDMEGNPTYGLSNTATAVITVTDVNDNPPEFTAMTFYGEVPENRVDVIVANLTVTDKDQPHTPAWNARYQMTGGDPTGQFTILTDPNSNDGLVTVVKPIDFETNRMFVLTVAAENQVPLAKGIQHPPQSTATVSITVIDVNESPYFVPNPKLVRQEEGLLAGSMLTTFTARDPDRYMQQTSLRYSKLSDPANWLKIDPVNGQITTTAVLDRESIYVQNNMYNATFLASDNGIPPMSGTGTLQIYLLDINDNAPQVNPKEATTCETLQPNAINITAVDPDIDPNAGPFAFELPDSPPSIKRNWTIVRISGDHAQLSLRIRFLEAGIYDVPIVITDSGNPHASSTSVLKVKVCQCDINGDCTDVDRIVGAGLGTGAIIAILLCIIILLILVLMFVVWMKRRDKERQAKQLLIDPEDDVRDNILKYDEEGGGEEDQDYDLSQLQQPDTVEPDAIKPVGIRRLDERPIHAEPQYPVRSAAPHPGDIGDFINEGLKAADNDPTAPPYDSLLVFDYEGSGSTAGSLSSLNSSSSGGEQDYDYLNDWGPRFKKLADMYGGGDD
Assay: cell-based or functional assay
Positions of bridges follow the written chain, without caps; N, C: chain ends.
observable: Percent Inhibition of N-cadherin dependent neurite outgrowth (peptide 250 µg/ml) (%)

These solved cases illustrate the format of a correct answer.
{"binder": "Ac-CHAVC-NH2 (disulfide 1-5 (inferred)) [N-Ac-CHAVC-NH2]", "result": 68.2}
{"binder": "H-CAHAVDC-NH2 (disulfide 1-7; SMILES CC(C)[C@@H]1NC(=O)[C@H](C)NC(=O)[C@H](Cc2c[nH]cn2)NC(=O)[C@H](C)NC(=O)[C@@H](N)CSSC[C@@H](C(N)=O)NC(=O)[C@H](CC(=O)O)NC1=O) [H-CAHAVDC-NH2]", "result": 1.3}

[1] H-CHAVC-NH2 (disulfide 1-5 (inferred)) [H-CHAVC-NH2]
[2] H-CAHAVDIC-NH2 (disulfide 1-8 (inferred)) [H-CAHAVDIC-NH2]
Enquiry: Parameter check: reported Percent Inhibition of N-cadherin dependent neurite outgrowth (peptide 250 µg/ml) is higher for which label, 1 or 2 ? Label of pick, please.
Return: 1
